Ref: patent US20260193326A1

Molecular target: T1, AAV5 (adeno-associated virus serotype 5)
T1 construct: also called adeno-associated virus serotype 5
Assay: SPR, AAV on CM5 chip
READOUT_TYPE: log10 kon (log10 of the value in M⁻¹ s⁻¹)

# BINDER, MEAS_VALUE
data = [
    ("A4-H5 (VHH) VHH: VQLQASGGGFVQPGGSLRLSCAASGRGFSINTMGWFRQAPGKERELVAVVTRGGTTYYADSVKGRFTISRDNSKNTVYLQMNSLRAEDTAVYYCHVDEVRQSSWTTSNLWGQGTQVTVSS", 3.27),
    ("A4-H1 (VHH) VHH: VQLVESGGGLVQPGGSLRLSCAASGRSFSINTMGWFRQAPGKGLEAVAIVTRGGSTYYADSVKGRFTISRDNSKNTLYLQMNSLRAEDTAVYYCHIDEVRQSSWTTSNIWGQGTLVTVSS", 5.24),
    ("A4-H4 (VHH) VHH: VQLVESGGGLVQPGGSLRLSCAASGSIFSINLMGWFRQAPGKGLELVAIITPGGNTYYADSVKGRFTISRDNSKNTVYLQMNSLRAEDTAVYYCHVDEVRQSSWTTSNLWGQGTLVTVSS", 5.05),
    ("A4-H2 (VHH) VHH: VQLQASGGGFVQPGGSLRLSCAASGRSFSINTMGWFRQAPGKEREFVAVVTRGGSTYYADSVKGRFTISRDNSKNTVYLQMNSLRAEDTATYYCHIDEVRQSSWTTSNIWGQGTQVTVSS", 5.21),
    ("A4-H3 (VHH) VHH: VQLQASGGGFVQPGGSLRLSCAASGSIFSINLMGWFRQAPGKERELVAVITPGGNTYYADSVKGRFTISRDNSKNTVYLQMNSLRAEDTATYYCHVDEVRQSSWTTSNLWGQGTQVTVSS", 5.20),
    ("A4-H6 (VHH) VHH: VQLVESGGGLVQPGGSLRLSCAASGRGFSINTMGWFRQAPGKGRELVAIVTRGGTTYYADSVKGRFTISRDNSKNTVYLQMNSLRAEDTAVYYCHVDEVRQSSWTTSNLWGQGTLVTVSS", 3.88),
]
